measurement.protocol: time dependent solubility in 2.5% aqueous di-sodium pamoate solution by HPLC
Assay type: physicochemical
test.parameters: 2.5% aqueous di-sodium pamoate solution, aqueous with cosolvent or surfactant or cyclodextrin, thermodynamic from solid, 5 minutes (0.08 h), read-out: Concentration (solubility by HPLC)
quantity.kind: solubility at 5 minutes (µg/mL)
// return numeric value only (unit: µg/mL, not printed)

Ask | Return the recorded solubility at 5 minutes value; entry: Cc1cc(-c2nnc3c4ccccc4c(OCc4cn(C)nn4)nn23)no1
Reply | 1890

* * *

measurement.protocol: time dependent solubility in 2.5% aqueous di-sodium pamoate solution by HPLC
Type: physicochemical
test.parameters: 2.5% aqueous di-sodium pamoate solution, aqueous with cosolvent or surfactant or cyclodextrin, thermodynamic from solid, 2910 minutes (48.5 h), read-out: Concentration (solubility by HPLC)
quantity.kind: solubility at 2910 minutes (µg/mL)
Numeric only. Scale: µg/mL

Ask | Please supply the value of reported solubility at 2910 minutes for the item Cc1cc(-c2nnc3c4ccccc4c(OCc4cn(C)nn4)nn23)no1
Reply | 1240

Hey, just so you know, these numbers are from patent US6534505B2.
